# assayDetails: A qHTS for Small Molecule Inhibitors of Shiga Toxin; also: 0% is about no effect
# measurementParameters: Vero cells, Shiga toxin protein synthesis inhibition reporter; at 38.7 µM, hits give high values
The campaign covered roughly 290,000 compounds. About 27,000 (9.3%) were called active. Only a selection was taken, and actives are over-represented in it overall.
observable: inhibition (%)

molecule=COc1cccc(-c2coc3cc4oc(=O)c(CC(=O)O)c(C)c4cc23)c1 observable=inhibition experimentalresult=5.32
molecule="O=C(C1=C(O)C(=O)N(c2ncccn2)C1c1cccs1)c1ccco1 (configuration not stated)" observable=inhibition experimentalresult=-18.4
molecule=CS(=O)(=O)N1CCc2cc(C(=O)Nc3ccccc3)ccc21 observable=inhibition experimentalresult=3.54
molecule=Cc1ccc(NC(=O)CSc2cccc3cccnc23)c(C)c1 observable=inhibition experimentalresult=21.1
molecule=CCc1ccccc1NC(=O)c1ccc2c(c1)CCN2S(C)(=O)=O observable=inhibition experimentalresult=21.4
molecule=O=C(c1cccs1)N(C(=O)c1cccs1)c1ccccn1 observable=inhibition experimentalresult=39.7
molecule=O=C(N/N=C/c1cc([N+](=O)[O-])ccc1O)/C(=C\c1cccs1)NC(=O)c1ccccc1 observable=inhibition experimentalresult=-4.29
molecule=COc1ccc(OC)c(NC(=O)c2ccc3c(c2)CCN3S(C)(=O)=O)c1 observable=inhibition experimentalresult=-5.31
molecule=CC(=O)Nc1cccc(NC(=O)c2ccc3c(c2)CCN3S(C)(=O)=O)c1 observable=inhibition experimentalresult=6.84
molecule=CSc1ccccc1NC(=O)c1ccc2c(c1)CCN2S(C)(=O)=O observable=inhibition experimentalresult=38.2
molecule=CS(=O)(=O)N1CCc2cc(C(=O)Nc3ccccc3Br)ccc21 observable=inhibition experimentalresult=50.7
molecule=O=[N+]([O-])c1ccc(O)c(/C=N/Nc2ccccc2[N+](=O)[O-])c1 observable=inhibition experimentalresult=33.7
molecule=CCc1cc2c(=O)c(-c3ccon3)c(N)oc2cc1OC observable=inhibition experimentalresult=82.2
molecule=Cc1ccc(Nc2nc(-c3sc(NC(=O)c4ccccc4)nc3C)cs2)cc1 observable=inhibition experimentalresult=16.8
molecule=CCn1c(CNC(=O)c2cc(OC)c(OC)c(OC)c2)cc2cc(C)ccc21 observable=inhibition experimentalresult=2.16
molecule=CCc1cc2c(=O)c(-c3ccc(F)cc3)c(C(F)(F)F)oc2cc1OCC(=O)O observable=inhibition experimentalresult=5.27
molecule=Nc1nnnn1/N=C/c1cc([N+](=O)[O-])ccc1O observable=inhibition experimentalresult=19.7
molecule=O=C(CN(C(=O)c1csnn1)c1cccc(Cl)c1)NC1CCCC1 observable=inhibition experimentalresult=13.6
molecule=COc1ccc2nc(Nc3nc(-c4cc5ccccc5oc4=O)cs3)sc2c1 observable=inhibition experimentalresult=61.7
molecule=COc1ccc2oc(N)c(C=O)c(=O)c2c1 observable=inhibition experimentalresult=63.7
molecule=CCc1ccc(S(=O)(=O)Nc2cc3c(cc2N2CCCCC2)n(C)c(=O)c(=O)n3C)cc1 observable=inhibition experimentalresult=-14.2
molecule=O=c1oc2ccccc2cc1-c1csc(Nc2ccc(O)cc2)n1 observable=inhibition experimentalresult=111
